Test system: A498 renal
Assay: NCI-60 one-dose screen, 48 h (100 = growth as untreated, 0 = no growth, -100 = all killed)
Conditions: 10 µM unless noted
The panel holds about 83,000 compounds, 20% with a hit somewhere; the sample as a whole holds those more often.
quantity name: growth (%)
Form entry: value (%) — number only.

Query: Which growth value is on record for C=CCN1C(=O)C(CC)(CCC(C)C)C(=O)NC1=S (stereo unspecified) ?
Response: 112

---

Tested on: HL-60(TB) leukemia
Test: NCI-60 one-dose screen, 48 h (100 = growth as untreated, 0 = no growth, -100 = all killed)
Settings: 10 µM unless noted
This is part of a sample that, as a whole, favours compounds with a hit. Of some 83,000 tested, about 20% had one in any assay.
quantity name: growth (%)
Form entry: value (%) — number only.

O=C1CCc2c(sc3[nH]c(=S)n(Cc4ccccc4)c(=O)c23)C1 :: 10.9

Query: Which growth value is on record for C#CCOc1ccc(C2=NN(CC3CC3)C3N=C(Cl)c4ncn(CC5CC5)c4N23)cc1OCC#C (centres undefined) ?
Response: 99.1

Query: Which growth value is on record for CCOC(=O)c1coc(C(=O)OCC)c1C(=O)OCC ?
Response: 105

Query: Which growth value is on record for C#CC(O)c1ccccc1 (centres undefined) ?
Response: 108

Query: Which growth value is on record for CC(C)=CCC[C@](C)(O)[C@H]1CC[C@]2(C)[C@@H]1CC[C@@H]1[C@@]3(C)C/C(=C/c4cccc([N+](=O)[O-])c4)C(=O)C(C)(C)[C@@H]3CC[C@]12C ?
Response: 68.4

Query: Which growth value is on record for O=C(C[C@@H](C(=O)NCc1cccc(C(F)(F)F)c1)N1C(=O)[C@@H](N2C(=O)OC[C@@H]2c2ccccc2)[C@H]1/C=C/c1ccccc1)NC1CCN(Cc2ccccc2)CC1 ?
Response: 55.3

Query: Which growth value is on record for CCN(CC)CCCNc1nc2ccccc2c2c(=O)c3cc(Cl)ccc3sc12 ?
Response: 64.5

Query: Which growth value is on record for Cc1nc2sc(C(=O)Nc3cccc4c3OCCO4)c(N)c2cc1C(C)O (centres undefined) ?
Response: 8.35

Query: Which growth value is on record for Cc1ccc([N+](=O)[O-])cc1Br ?
Response: 80.6
